From various publications: IC50 for Aurora kinase B (Homo sapiens).

## Task # get_value(readout= IC50, system= Aurora kinase B (Homo sapiens)) for CN1CCC(Oc2ccc(-c3n[nH]c4ccc(C(=O)NC(c5ccccn5)C5CC5)cc34)cc2Cl)CC1 (stereo not shown)
## Result ≤ 5000 nM

## Task # get_value(readout= IC50, system= Aurora kinase B (Homo sapiens)) for COc1ccc2c(c1)C(=Cc1ccc3c(/C=C/c4cccnc4)n[nH]c3c1)C(=O)N2 (mixture of isomers)
## Result < 5000 nM

## Task # get_value(readout= IC50, system= Aurora kinase B (Homo sapiens)) for O=C1Nc2ccc(Br)cc2/C1=C\c1ccc2cn[nH]c2c1
## Result < 5000 nM

## Task # get_value(readout= IC50, system= Aurora kinase B (Homo sapiens)) for O=C(c1cccc(Cl)c1F)N1CCN(Cc2cc(CO)cc(Nc3nccs3)n2)CC1
## Result 200 nM

## Task # get_value(readout= IC50, system= Aurora kinase B (Homo sapiens)) for O=C1Nc2c(cccc2C(F)(F)F)C1=Cc1ccc2cn[nH]c2c1 (mixture of isomers)
## Result 5000 to 50000 nM

## Task # get_value(readout= IC50, system= Aurora kinase B (Homo sapiens)) for COc1cc2nccc(Oc3ccc(NC(=O)c4ccccc4)cc3)c2cc1OCC[C@H](N)C(=O)O
## Result 2000 to 5000 nM

## Task # get_value(readout= IC50, system= Aurora kinase B (Homo sapiens)) for O=C(O)CCc1c(/C=C2\C(=O)Nc3cc(-c4ccc(O)cc4)ccc32)[nH]c2c1C(=O)CCC2
## Result 456 nM

## Task # get_value(readout= IC50, system= Aurora kinase B (Homo sapiens)) for COc1cc(-c2n[nH]c3ccc(C(=O)NC(c4ccccc4)C4CC4)cc23)ccc1OC1CCNCC1 (stereo not shown)
## Result ≤ 5000 nM

## Task # get_value(readout= IC50, system= Aurora kinase B (Homo sapiens)) for O=C(Nc1ccc(Nc2ccnc3[nH]c(=O)cc(O)c23)cc1)c1ccc(F)cc1C(F)(F)F
## Result 1 to 300 nM

## Task # get_value(readout= IC50, system= Aurora kinase B (Homo sapiens)) for Cc1cc(C)c2[nH]ccc2c1-c1nc(C(N)=O)c(-c2ccc(N3CCNC(C)(C)C3)cc2)o1
## Result 19.6 nM

## Task # get_value(readout= IC50, system= Aurora kinase B (Homo sapiens)) for Cc1ccc(-c2nnc(Nc3ccc(Sc4ccnc5ccnn45)cc3)c3ccccc23)nc1
## Result < 100 nM

## Task # get_value(readout= IC50, system= Aurora kinase B (Homo sapiens)) for O=C1Nc2ccc(F)cc2[C@]12C[C@H]2c1ccc2c(I)n[nH]c2c1 (relative stereo)
## Result 100 to 1000 nM

## Task # get_value(readout= IC50, system= Aurora kinase B (Homo sapiens)) for COC(=O)c1cnc(/C(C(N)=O)=C2/Nc3ccccc3S2)nc1C(F)(F)F
## Result 10 nM

## Task # get_value(readout= IC50, system= Aurora kinase B (Homo sapiens)) for CN1CCOc2cc(-c3n[nH]c4ccc(NC(=O)C(c5ccsc5)N5CCCC5)cc34)ccc21 (stereo not shown)
## Result ≤ 5000 nM

## Task # get_value(readout= IC50, system= Aurora kinase B (Homo sapiens)) for O=C1Nc2ncccc2/C1=C\c1ccc2c(/C=C/c3ccncc3)n[nH]c2c1
## Result < 5000 nM

## Task # get_value(readout= IC50, system= Aurora kinase B (Homo sapiens)) for COc1cc2c(Sc3ccc(NC(=O)c4ccccc4)cc3)ccnc2cc1OCC[C@H](N)C(=O)OC1CCCC1
## Result > 5000 nM

## Task # get_value(readout= IC50, system= Aurora kinase B (Homo sapiens)) for CC(C)(C)OC(=O)Nc1ccc2c(c1)/C(=C\c1ccc3c(/C=C/c4ccncc4)n[nH]c3c1)C(=O)N2
## Result < 5000 nM

## Task # get_value(readout= IC50, system= Aurora kinase B (Homo sapiens)) for COc1cccc(-c2nc(Nc3cc(C)[nH]n3)cc(N3CCN(C)CC3)n2)c1
## Result ≤ 1000 nM

## Task # get_value(readout= IC50, system= Aurora kinase B (Homo sapiens)) for CN1CCC(Oc2ccc(-c3n[nH]c4ccc(C(=O)NC(c5ccccc5)C5CCOCC5)cc34)cc2)CC1 (stereo not shown)
## Result ≤ 5000 nM

## Task # get_value(readout= IC50, system= Aurora kinase B (Homo sapiens)) for CC(O)Cn1cc(Nc2ncc(Cl)c(NC3CC4CN(S(=O)(=O)C5CC5)CC4C3)n2)cn1 (stereo not shown)
## Result 1 nM

## Task # get_value(readout= IC50, system= Aurora kinase B (Homo sapiens)) for CN1CCC(Oc2ccc(-c3n[nH]c4ccc(NC(=O)C(c5ccsc5)N5CCCCC5)cc34)cc2)CC1 (stereo not shown)
## Result ≤ 5000 nM

## Task # get_value(readout= IC50, system= Aurora kinase B (Homo sapiens)) for COc1cc2c(Sc3ccc(NC(=O)c4ccccc4)cc3)ccnc2cc1OCC[C@H](N)C(=O)O
## Result < 2000 nM

## Task # get_value(readout= IC50, system= Aurora kinase B (Homo sapiens)) for NC(=O)[C@H]1[C@H]2C[C@H]3[C@H]1Nc1nc(ncc1F)Nc1cccc(c1)[C@H](O)CS[C@@H]3C2
## Result 1 to 100 nM

## Task # get_value(readout= IC50, system= Aurora kinase B (Homo sapiens)) for NC(=O)c1cc(F)cc2c(N[C@H](CN3CCC3)c3ccc(Cl)c(F)c3)ncnc12
## Result 54 nM

## Task # get_value(readout= IC50, system= Aurora kinase B (Homo sapiens)) for O=C1Nc2ncc(Br)cc2C1=Cc1ccc2c(/C=C/c3cccnc3)n[nH]c2c1 (mixture of isomers)
## Result < 5000 nM

## Task # get_value(readout= IC50, system= Aurora kinase B (Homo sapiens)) for CO[C@@H](C(=O)Nc1ccc2[nH]nc(-c3ccc(OC4CCN(C)CC4)cc3)c2c1)c1ccccc1
## Result ≤ 5000 nM

## Task # get_value(readout= IC50, system= Aurora kinase B (Homo sapiens)) for COc1cc2c(Oc3ccc(NC(=O)c4ccccc4F)cc3)ccnc2cc1OCC[C@H](N)C(=O)O
## Result < 2000 nM

## Task # get_value(readout= IC50, system= Aurora kinase B (Homo sapiens)) for NC(=O)[C@H]1[C@@H]2C[C@H]3CNCC(=O)Nc4cccc(c4)Nc4ncc(F)c(n4)N[C@@H]1[C@@H]3C2
## Result 101 to 1000 nM

## Task # get_value(readout= IC50, system= Aurora kinase B (Homo sapiens)) for CN1CCC(Oc2cccc(-c3n[nH]c4ccc(NC(=O)C(c5ccsc5)N5CCCC5)cc34)c2)CC1 (stereo not shown)
## Result ≤ 5000 nM

## Task # get_value(readout= IC50, system= Aurora kinase B (Homo sapiens)) for COCCN1CCC(Oc2ccc(-c3n[nH]c4ccc(C(=O)NC(c5ccccc5)C5CC5)cc34)cc2)CC1 (stereo not shown)
## Result ≤ 5000 nM

## Task # get_value(readout= IC50, system= Aurora kinase B (Homo sapiens)) for CNC(=O)C1(Cc2ccc(F)c(Nc3cc(C)[nH]n3)n2)CCN(C(=O)c2cccc(Cl)c2F)CC1
## Result 460 nM
